Source of measurements: patent US7030242B2

target_or_test_system: Human recombinant collagenase-1 (Homo sapiens)
Sequence (P03956 100-469): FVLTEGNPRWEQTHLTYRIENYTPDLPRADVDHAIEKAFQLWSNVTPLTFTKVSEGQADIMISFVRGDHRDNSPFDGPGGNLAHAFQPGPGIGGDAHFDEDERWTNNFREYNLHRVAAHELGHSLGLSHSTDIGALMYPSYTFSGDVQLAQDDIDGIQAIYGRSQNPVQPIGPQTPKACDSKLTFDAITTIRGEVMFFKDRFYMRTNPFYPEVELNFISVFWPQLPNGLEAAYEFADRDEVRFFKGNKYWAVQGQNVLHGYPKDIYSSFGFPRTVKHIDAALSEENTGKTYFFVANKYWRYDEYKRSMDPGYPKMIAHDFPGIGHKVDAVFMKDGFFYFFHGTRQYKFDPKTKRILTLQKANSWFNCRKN
run_description: Inhibition of human collagenase-1 (recombinant collagenase-1 assay)
settings: Table 2, read-out: MMP-1 (IC50 class)
property_measured: IC50

In [3]: df
Out[3]:
                                smiles_repr     measurement
0  CC1(C)C[C@@H](O)CN(S(=O)(=O)c2ccc(OCc3ccc(Cl)cc3Cl)cc2)[C@H]1C(=O)NO  200 to 1000 nM
1  CC1(C)C[C@@H](O)CN(S(=O)(=O)c2ccc(OCc3ccc(F)cc3)cc2)[C@H]1C(=O)NO    20 to 200 nM
2  CNC(=O)N1CCN(S(=O)(=O)c2ccc(OCc3cc(F)ccc3C)cc2)[C@@H](C(=O)NO)[C@@H]1C       > 1000 nM
3  Cc1ccccc1COc1ccc(S(=O)(=O)N2CCC[C@](C)(O)[C@@H]2C(=O)NO)cc1  200 to 1000 nM

* * *

Test system: aggrecanase
run_description: Aggrecanase chondrocyte assay (35S-proteoglycan release, IL-1 stimulated)
Format: cell-based, porcine
settings: Table 2; aggrecanase chondrocyte assay; read-out: Agg (aggrecanase IC50 class)
property_measured: IC50

>>> print(df.to_string())
                                smiles_repr  measurement
0  Cc1cc(F)ccc1COc1ccc(S(=O)(=O)N2CC(=O)N[C@@H](C)[C@@H]2C(=O)NO)cc1      < 10 nM
1  Cc1cc(F)ccc1COc1ccc(S(=O)(=O)N2C[C@H](O)CC(C)(C)[C@@H]2C(=O)NO)cc1      < 10 nM
2  CC1(C)C[C@@H](O)CN(S(=O)(=O)c2ccc(OCc3ccc(F)cc3)cc2)[C@H]1C(=O)NO      < 10 nM
3  C[C@@]1(O)CCCN(S(=O)(=O)c2ccc(OCc3ccc(F)cc3F)cc2)[C@H]1C(=O)NO  10 to 20 nM
4  Cc1ccccc1COc1ccc(S(=O)(=O)N2CCN(C(=O)CN)[C@@H](C)[C@@H]2C(=O)NO)cc1      < 10 nM

* * *

target_or_test_system: Human recombinant collagenase-3 (Homo sapiens, UniProt P45452)
run_description: Inhibition of human collagenase-3 (recombinant collagenase-3 assay)
Type: biochemical
settings: Table 2; recombinant collagenase-3 assay; read-out: MMP-13 (IC50 class)
pIC50: −log10 of the molar value.
property_measured: pIC50

In [3]: df
Out[3]:
                                smiles_repr  measurement
0  C[C@@]1(O)CCCN(S(=O)(=O)c2ccc(OCc3ccc(Cl)cc3F)cc2)[C@H]1C(=O)NO       > 8.00
1  C[C@@]1(O)CCCN(S(=O)(=O)c2ccc(OCc3ccc(Cl)cc3Cl)cc2)[C@H]1C(=O)NO       > 8.00
2  CNC(=O)N1CCN(S(=O)(=O)c2ccc(OCc3ccc(F)cc3F)cc2)[C@@H](C(=O)NO)[C@@H]1C       > 8.00
3  C[C@@]1(O)CCCN(S(=O)(=O)c2ccc(OCc3ccccc3Cl)cc2)[C@H]1C(=O)NO       > 8.00
4  CC1(C)C[C@@H](O)CN(S(=O)(=O)c2ccc(OCc3ccc(F)cc3)cc2)[C@H]1C(=O)NO       > 8.00
5  CC1(C)C[C@@H](O)CN(S(=O)(=O)c2ccc(OCc3ccc(F)cc3Cl)cc2)[C@H]1C(=O)NO       > 8.00
6  Cc1c(F)cccc1COc1ccc(S(=O)(=O)N2CCC[C@@](C)(O)[C@@H]2C(=O)NO)cc1       > 8.00
